# method notes: Plasma concentration in cynomolgus monkey at 3 mg/kg, po qd administered via gavage for 14 days measured after 5 hrs of last-dose by LC/MS/MS analysis
# Assay type: ADME, organism-based, Macaca fascicularis
result type: concentration at 5 h (nM)
Answer format: numeric, nM implied, no suffix.

input: Let me know recorded concentration at 5 h for CC(C)(O)c1cn(-c2ccc(-c3cc(F)c(CO)c(S(C)(=O)=O)c3)cc2)c(C(C)(C)c2cccc(F)c2Cl)n1 , thanks.
output: 310

* * *

# study target: Retinoic acid receptor RXR-alpha/oxysterols receptor LXR-beta (Homo sapiens, UniProt P55055)
# Sequence (P19793 whole entry): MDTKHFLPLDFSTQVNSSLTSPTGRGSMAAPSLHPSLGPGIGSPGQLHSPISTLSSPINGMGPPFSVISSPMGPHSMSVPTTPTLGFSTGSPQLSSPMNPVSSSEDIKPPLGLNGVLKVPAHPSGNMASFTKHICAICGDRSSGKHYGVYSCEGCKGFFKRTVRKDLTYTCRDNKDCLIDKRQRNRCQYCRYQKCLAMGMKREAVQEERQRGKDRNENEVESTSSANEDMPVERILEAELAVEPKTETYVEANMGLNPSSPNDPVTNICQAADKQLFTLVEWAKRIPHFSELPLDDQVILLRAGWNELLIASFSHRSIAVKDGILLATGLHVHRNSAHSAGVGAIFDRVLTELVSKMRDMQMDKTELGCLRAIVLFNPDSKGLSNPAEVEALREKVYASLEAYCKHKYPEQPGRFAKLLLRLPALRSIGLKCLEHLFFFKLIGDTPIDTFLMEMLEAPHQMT
# Sequence (P55055 whole entry): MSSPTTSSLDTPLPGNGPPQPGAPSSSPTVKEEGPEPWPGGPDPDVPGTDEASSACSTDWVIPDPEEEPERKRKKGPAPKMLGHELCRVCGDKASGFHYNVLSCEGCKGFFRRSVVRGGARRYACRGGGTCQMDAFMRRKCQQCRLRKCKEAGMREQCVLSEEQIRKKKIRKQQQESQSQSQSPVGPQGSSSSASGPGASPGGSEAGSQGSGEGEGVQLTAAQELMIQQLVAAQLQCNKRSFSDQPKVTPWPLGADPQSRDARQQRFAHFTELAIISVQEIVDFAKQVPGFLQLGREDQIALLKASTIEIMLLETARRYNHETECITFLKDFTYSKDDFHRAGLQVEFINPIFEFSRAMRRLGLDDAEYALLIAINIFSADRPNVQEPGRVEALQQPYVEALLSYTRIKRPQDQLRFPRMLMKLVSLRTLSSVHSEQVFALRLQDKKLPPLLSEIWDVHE
Reported pKi values for the following molecules.
Scale: negative log10 of molar concentration, which is what pKi denotes.

Previously resolved entries follow.
1. CC(C)(O)c1cn(-c2ccc(-c3cc(F)c(CO)c(S(C)(=O)=O)c3)cc2)c(C(C)(C)c2c(Cl)cccc2Cl)n1 :: 8.22
2. CC(C)(O)c1cn(-c2ccc(-c3ccc(CO)c(S(C)(=O)=O)c3)cc2)c(C(C)(C)c2ccccc2Cl)n1 :: 7.89
3. CC(C)(O)c1cn(-c2ccc(-c3cc(F)c(CO)c(S(C)(=O)=O)c3)cc2)c(C(C)(C)c2ccccc2F)n1 :: 7.85

input: Given CC(C)(O)c1cn(-c2ccc(-c3cc(F)c(CO)c(S(C)(=O)=O)c3)cc2)c(C(C)(C)c2ccccc2Cl)n1 , respond with its pKi.
output: 8.00

input: State its pKi for this molecule: CC(C)(O)c1cn(-c2ccc(-c3ccc(CO)c(S(C)(=O)=O)c3)cc2)c(Cc2ccccc2Cl)n1
output: 8.30

input: Retrieve pKi measured for CC(C)(O)c1cn(-c2ccc(-c3cc(F)c(CO)c(S(C)(=O)=O)c3)cc2F)c(C(C)(C)c2c(Cl)cccc2Cl)n1 and print it.
output: 7.92
